Data credit: ChEMBL document CHEMBL1909294

Reported HepSE_hepatitis values, Hepatotoxicity.
A bare number is all that is needed in reply.

Some solved cases for reference:
- molecule: "C=C1/C(=C\\C=C2/CCC[C@]3(C)[C@@H]([C@H](C)CCCC(C)(C)O)CC[C@@H]23)C[C@@H](O)C[C@@H]1O"
  targetDesc: "Hepatotoxicity"
  HepSE_hepatitis: 0
- molecule: "C[C@H](O)C(=O)Nc1c(I)c(C(=O)NC(CO)CO)c(I)c(C(=O)NC(CO)CO)c1I"
  targetDesc: "Hepatotoxicity"
  HepSE_hepatitis: 0
- molecule: "CO/N=C(\\C(=O)N[C@@H]1C(=O)N2C(C(=O)O)=C(COC(C)=O)CS[C@H]12)c1csc(N)n1"
  targetDesc: "Hepatotoxicity"
  HepSE_hepatitis: 1
- molecule: "CCCCN1CCCCC1C(=O)Nc1c(C)cccc1C (configuration not stated)"
  targetDesc: "Hepatotoxicity"
  HepSE_hepatitis: 0
- molecule: "CCN(CC)CCNC(=O)c1ccc(N)cc1 [PROCAINAMIDE]"
  targetDesc: "Hepatotoxicity"
  HepSE_hepatitis: 0

What does the data say about its HepSE_hepatitis? Entry: O=C(N[C@H](CO)[C@H](O)c1ccc([N+](=O)[O-])cc1)C(Cl)Cl
0

# HepSE_hepatitis lookup, item CC[C@H]1OC(=O)[C@H](C)[C@@H](O[C@H]2C[C@@](C)(OC)[C@@H](O)[C@H](C)O2)[C@H](C)[C@@H](O[C@@H]2O[C@H](C)C[C@H](N(C)C)[C@H]2O)[C@](C)(O)C[C@@H](C)CN(C)[C@H](C)[C@@H](O)[C@]1(C)O
1

###

- Tested on: Hepatotoxicity
- runParameters: Liver
The entries below are paired with their reported HepSE_liver function tests abnormal.
Output: the number by itself.

// worked examples, HepSE_liver function tests abnormal included
- compound: "CC(=O)O[C@H]1C[C@@H]2CC[C@@H]3[C@H](CC[C@@]4(C)[C@H]3C[C@H]([N+]3(C)CCCCC3)[C@@H]4OC(C)=O)[C@@]2(C)C[C@@H]1[N+]1(C)CCCCC1"
  numericValue: 0
- compound: "Clc1ccc2nsnc2c1NC1=NCCN1"
  numericValue: 1
- compound: "C#C[C@]1(O)CC[C@H]2[C@@H]3CCC4=CC(=O)CC[C@@H]4[C@H]3CC[C@@]21CC"
  numericValue: 0

Consider the record given below.
Look up HepSE_liver function tests abnormal: CN1CCCCC1CCN1c2ccccc2Sc2ccc([S+](C)[O-])cc21 (centres undefined)
0

###

- Test system: Hepatotoxicity
- runParameters: Liver
Overview of recorded HepSE_Combined Scores for various compounds
Form rule: numeric answer, no unit written next to it.

# count of solved cases: 5
- compound: "Nc1ccn([C@H]2CC[C@@H](CO)O2)c(=O)n1"
  numericValue: 5
- compound: "NCCCC(O)(P(=O)(O)O)P(=O)(O)O"
  numericValue: 0
- compound: "CNCCCC1c2ccccc2C=Cc2ccccc21"
  numericValue: 1
- compound: "OCCOCCN1CCN(C2=Nc3ccccc3Sc3ccccc32)CC1"
  numericValue: 0
- compound: "CCCCS(=O)(=O)N[C@@H](Cc1ccc(OCCCCC2CCNCC2)cc1)C(=O)O"
  numericValue: 0

For the record Nc1ccn([C@@H]2O[C@H](CO)[C@@H](O)[C@@H]2O)c(=O)n1 , what value of HepSE_Combined Scores is listed for Hepatotoxicity?
2

Query for Hepatotoxicity: what HepSE_Combined Scores does the record show for Clc1cccc(Cl)c1N=C1NCCN1 ?
1

Tell me reported HepSE_Combined Scores for CC1=C(C(=O)O)N2C(=O)[C@@H](NC(=O)[C@H](N)c3ccccc3)[C@H]2SC1 [CEPHALEXIN ANHYDROUS] , tested with Hepatotoxicity.
2

Hello, I am looking for reported HepSE_Combined Scores with Hepatotoxicity for Cc1ccc(C(=O)c2cc(O)c(O)c([N+](=O)[O-])c2)cc1 . Could you help?
2

###

- Tested on: Hepatotoxicity
reportedProperty: HepSE_Combined Scores
Write the value as a bare number.

Field: example entries. Status: answers known.
- compound: "CC[N+](CC)(CCNC(=O)C(=O)NCC[N+](CC)(CC)Cc1ccccc1Cl)Cc1ccccc1Cl [AMBENONIUM]"
  targetDesc: "Hepatotoxicity"
  HepSE_Combined Scores: 0
- compound: "C[C@]12C=CC(=O)C=C1CC[C@@H]1[C@@H]2C(=O)C[C@@]2(C)[C@H]1CC[C@]2(O)C(=O)CO [PREDNISONE]"
  targetDesc: "Hepatotoxicity"
  HepSE_Combined Scores: 0
- compound: "O=C1c2cccc3c2[C@H](CCC3)CN1[C@@H]1CN2CCC1CC2 [PALONOSETRON]"
  targetDesc: "Hepatotoxicity"
  HepSE_Combined Scores: 0

Here's the next entry for you.
Which HepSE_Combined Scores value belongs to CN[C@@H](C)Cc1ccccc1 [METHAMPHETAMINE] ?
0

###

- System: Hepatotoxicity
- runParameters: Liver
reportedProperty: HepSE_hepatomegaly
Respond numerically, and do not add a unit to the figure.

// below: answered molecules
- molecule: "Nc1ccn([C@H]2CC[C@@H](CO)O2)c(=O)n1 [ZALCITABINE]"
  targetDesc: "Hepatotoxicity"
  HepSE_hepatomegaly: 1
- molecule: "CNCCC=C1c2ccccc2CCc2ccccc21 [NORTRIPTYLINE]"
  targetDesc: "Hepatotoxicity"
  HepSE_hepatomegaly: 0
- molecule: "CCCNCC(O)COc1ccccc1C(=O)CCc1ccccc1 (stereo unspecified) [PROPAFENONE]"
  targetDesc: "Hepatotoxicity"
  HepSE_hepatomegaly: 1
- molecule: "O=P(O)(O)O [PHOSPHORIC ACID]"
  targetDesc: "Hepatotoxicity"
  HepSE_hepatomegaly: 0
- molecule: "NC(N)=Nc1nc(CSCCC(N)=NS(N)(=O)=O)cs1 [FAMOTIDINE]"
  targetDesc: "Hepatotoxicity"
  HepSE_hepatomegaly: 0

Now for another entry.
Given the entry CC(=O)[O-].[Na+] [SODIUM ACETATE] , what HepSE_hepatomegaly was observed with Hepatotoxicity?
0

###

Entries and their HepSE_cholecystitis values follow.
- Tested on: Hepatotoxicity
Just the number, please, no unit after it.

- compound: "CCCCCCCCCCC[C@@H](C[C@@H]1OC(=O)[C@H]1CCCCCC)OC(=O)[C@H](CC(C)C)NC=O [ORLISTAT]"
  targetDesc: "Hepatotoxicity"
  HepSE_cholecystitis: 0

Lab note: need HepSE_cholecystitis with Hepatotoxicity for entry CNC1=Nc2ccc(Cl)cc2C(c2ccccc2)=[N+]([O-])C1 [CHLORDIAZEPOXIDE] , please look it up.
0

Give HepSE_cholecystitis (Hepatotoxicity) of the following compound: CC(C)(C)NCC(O)COc1cccc2c1CCC(=O)N2 (centres undefined) [CARTEOLOL]
0

Which HepSE_cholecystitis is reported with Hepatotoxicity for this entry: NC(=O)CC[C@H](N)C(=O)O [GLUTAMINE] ?
0

// fetch Hepatotoxicity HepSE_cholecystitis for OCCN1C[C@H](O)[C@@H](O)[C@H](O)[C@H]1CO [MIGLITOL]
0

Lab note: need HepSE_cholecystitis with Hepatotoxicity for entry Cc1[nH]cnc1CN1CCc2c(c3ccccc3n2C)C1=O [ALOSETRON] , please look it up.
1

Return HepSE_cholecystitis measured with Hepatotoxicity given this compound: NS(=O)(=O)c1cc2c(cc1C(F)(F)F)NC(Cc1ccccc1)NS2(=O)=O (centres undefined) [BENDROFLUMETHIAZIDE]
0

# returns recorded HepSE_cholecystitis (system: Hepatotoxicity) for CC(C)CC(N(C)C)C1(c2ccc(Cl)cc2)CCC1 (centres undefined) [SIBUTRAMINE]
1

Param readout= HepSE_cholecystitis; system= Hepatotoxicity; entry= CC(C)[C@H]1CC[C@H](C(=O)N[C@H](Cc2ccccc2)C(=O)O)CC1 [NATEGLINIDE] ; returns value.
0

###

Here's what we have: HepSE_cholelithiasis numbers for Hepatotoxicity.

Use these answered entries as a reference point.
- molecule: "CCCCC[C@](C)(O)/C=C/[C@@H]1[C@@H](C/C=C/CCCC(=O)O)[C@@H](O)C[C@H]1O"
  HepSE_cholelithiasis: 0
- molecule: "CO[C@H]1/C=C/O[C@@]2(C)Oc3c(C)c(O)c4c(O)c(c(/C=N/N5CCN(C6CCCC6)CC5)c(O)c4c3C2=O)NC(=O)/C(C)=C\\C=C\\[C@H](C)[C@H](O)[C@@H](C)[C@@H](O)[C@@H](C)[C@H](OC(C)=O)[C@@H]1C [RIFAPENTINE]"
  HepSE_cholelithiasis: 0
- molecule: "C1N2CN3CN1CN(C2)C3 [METHENAMINE]"
  HepSE_cholelithiasis: 0
- molecule: "NS(=O)(=O)c1cc2c(cc1Cl)N=CNS2(=O)=O [CHLOROTHIAZIDE]"
  HepSE_cholelithiasis: 0
- molecule: "CCCCCNC(=N)N/N=C/c1c[nH]c2ccc(OC)cc12 [TEGASEROD]"
  HepSE_cholelithiasis: 1

Short answer please: HepSE_cholelithiasis, Hepatotoxicity, entry Cc1ccccc1N1C(=O)c2cc(S(N)(=O)=O)c(Cl)cc2NC1C (configuration not stated) [METOLAZONE]
0

For the record CC1(C)O[C@@H]2C[C@H]3[C@@H]4CCC5=CC(=O)CC[C@]5(C)[C@@]4(F)[C@@H](O)C[C@]3(C)[C@]2(C(=O)CCl)O1 [HALCINONIDE] , what value of HepSE_cholelithiasis is listed for Hepatotoxicity?
0
